Hey, just so you know, these numbers are from patent US20240360178A1.

assayed-system: human PD-1 (Jurkat-PD-1 cells) / PE-labeled human PD-L1-Ig (Homo sapiens, UniProt Q15116)
Construct: expressed in transfected cells; host or cells: Jurkat cell line over-expressing human PD-1
Sequence (Q15116 25-288): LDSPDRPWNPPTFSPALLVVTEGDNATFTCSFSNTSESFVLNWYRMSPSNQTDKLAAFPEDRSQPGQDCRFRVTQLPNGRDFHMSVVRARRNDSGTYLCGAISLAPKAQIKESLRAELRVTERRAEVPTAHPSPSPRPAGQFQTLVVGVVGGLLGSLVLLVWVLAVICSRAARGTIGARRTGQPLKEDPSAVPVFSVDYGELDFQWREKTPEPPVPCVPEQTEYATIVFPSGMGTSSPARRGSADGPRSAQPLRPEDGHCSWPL
experiment: Jurkat-PD-1 Cell Binding High-Content Screening Assay (CBA); Jurkat hPD1-PDL1 assay
condition-parameters: Jurkat cell line over-expressing human PD-1; PE-labeled PD-L1-Ig 20 nM final; compound incubated 2 hours at 37° C.; read-out: Jurkat HPD1-PDL1 IC50
Positions of bridges follow the written chain, without caps; N, C: chain ends. Non-standard residues stand in square brackets, D forms with d. Residues, ends and D or L forms follow the SMILES beside them. Bip = N[C@@H](Cc1ccc(-c2ccccc2)cc1)C(=O)O; Phe(3-OMe) = COc1cccc(C[C@H](N)C(=O)O)c1; NMeF = CN[C@@H](Cc1ccccc1)C(=O)O; dOrn = NCCC[C@@H](N)C(=O)O; NMeA = CN[C@@H](C)C(=O)O; Dab = NCC[C@H](N)C(=O)O; Sar = CNCC(=O)O
Each entry below lists one item and its recorded pIC50 value.
Units for pIC50: none; it is -log10 of a concentration expressed in mol/L.

Answered cases to consult:
## Task Given the molecule CC(C)C[C@@H]1NC(=O)[C@H](CCCNC(=N)N)NC(=O)CN(C)C(=O)[C@H](C)N(C)C(=O)[C@H](C(C)C)NC(=O)[C@H](Cc2ccc(-c3ccccc3)cc2)NC(=O)[C@H](Cc2ccc(O)cc2)NC(=O)[C@H](Cc2c[nH]c3ccccc23)NC(=O)[C@H](CC(=O)O)NC(=O)[C@H](Cc2ccc(O)cc2)NC(=O)[C@H](Cc2ccccc2)NC(=O)CSC[C@@H](C(=O)NCC(N)=O)NC(=O)[C@H](CO)NC(=O)[C@H](C(C)C)NC1=O [Example 1236] ({CH2CO}-FYDWY[Bip]V[NMeA][Sar]RLVSCG-NH2; thioether N-14) , write its reported pIC50.
## Result 6.36

## Task Identify pIC50 associated with the molecule CC(C)C[C@@H]1NC(=O)[C@H](Cc2c[nH]c3ccccc23)NC(=O)[C@H](CC(=O)O)NC(=O)[C@H](Cc2ccc(O)cc2)NC(=O)[C@H](Cc2ccccc2)NC(=O)CSC[C@@H](C(=O)N[C@@H](C)C(N)=O)NC(=O)[C@H](CO)NC(=O)[C@H](C(C)C)NC(=O)[C@H](CC(C)C)NC(=O)[C@H](CCCCN)NC(=O)CN(C)C(=O)[C@H](C)N(C)C(=O)[C@H](CCC(=O)O)NC(=O)[C@H](Cc2ccc(-c3ccccc3)cc2)NC1=O [Example 1134] ({CH2CO}-FYDWL[Bip]E[NMeA][Sar]KLVSCA-NH2; thioether N-14)
## Result 6.27

## Task Give recorded pIC50. CC(C)C[C@@H]1NC(=O)CSC[C@@H](C(=O)NCC(N)=O)NC(=O)[C@H](CO)NC(=O)[C@H](C(C)C)NC(=O)[C@H](CC(C)C)NC(=O)[C@H](CCCNC(=N)N)NC(=O)[C@H](Cc2ccccc2)N(C)C(=O)[C@H](C)N(C)C(=O)[C@H](CCC(=O)O)NC(=O)[C@H](Cc2ccc(-c3ccccc3)cc2)NC(=O)[C@H](C(C)C)NC(=O)[C@H](Cc2c[nH]c3ccccc23)NC(=O)[C@H](CC(=O)O)NC(=O)[C@H](Cc2ccc(O)cc2)NC1=O [Example 1287] ({CH2CO}-LYDWV[Bip]E[NMeA][NMeF]RLVSCG-NH2; thioether N-14)
## Result 6.89

Continuing:
## Task Please list pIC50 recorded for the molecule CC(C)C[C@@H]1NC(=O)[C@H](CCN)NC(=O)[C@H](Cc2ccccc2)N(C)C(=O)[C@H](C)N(C)C(=O)[C@H](CCCNC(=N)N)NC(=O)[C@H](Cc2ccc(-c3ccccc3)cc2)NC(=O)[C@H](C(C)C)NC(=O)[C@H](Cc2c[nH]c3ccccc23)NC(=O)[C@H](CC(=O)O)NC(=O)[C@H](Cc2ccc(O)cc2)NC(=O)[C@H](CCC(N)=O)NC(=O)CSC[C@@H](C(=O)N[C@@H](C)C(N)=O)NC(=O)[C@H](CO)NC(=O)[C@H](C(C)C)NC1=O [Example 1307] ({CH2CO}-QYDWV[Bip]R[NMeA][NMeF][Dab]LVSCA-NH2; thioether N-14)
## Result 6.77

## Task Give the value of pIC50 reported for the following: CC(C)C[C@@H]1NC(=O)[C@H](Cc2c[nH]c3ccccc23)NC(=O)[C@H](CC(=O)O)NC(=O)[C@H](Cc2ccc(O)cc2)NC(=O)[C@H](Cc2ccccc2)NC(=O)CSC[C@@H](C(=O)N[C@@H](C)C(N)=O)NC(=O)[C@H](CO)NC(=O)[C@H](C(C)C)NC(=O)[C@H](CC(C)C)NC(=O)[C@H](CC(N)=O)NC(=O)CN(C)C(=O)[C@@H](CCCN)NC(=O)[C@H](C(C)C)NC(=O)[C@H](Cc2ccc(-c3ccccc3)cc2)NC1=O [Example 1198] ({CH2CO}-FYDWL[Bip]V[dOrn][Sar]NLVSCA-NH2; thioether N-14)
## Result 6.12

## Task Provide one value: measured pIC50 of CC(C)C[C@@H]1NC(=O)[C@H](CCCNC(=N)N)NC(=O)[C@H](Cc2ccccc2)N(C)C(=O)[C@H](C)N(C)C(=O)[C@H](CCCNC(=N)N)NC(=O)[C@H](Cc2ccc(-c3ccccc3)cc2)NC(=O)[C@H](C(C)C)NC(=O)[C@H](Cc2c[nH]c3ccccc23)NC(=O)[C@H](CC(=O)O)NC(=O)[C@H](Cc2ccc(O)cc2)NC(=O)[C@H](Cc2ccccc2)NC(=O)CSC[C@@H](C(=O)NCC(N)=O)NC(=O)[C@H](CO)NC(=O)[C@H](C(C)C)NC1=O [Example 1000] ({CH2CO}-FYDWV[Bip]R[NMeA][NMeF]RLVSCG-NH2; thioether N-14)
## Result 6.59

## Task Kindly indicate its recorded pIC50. Item: CC(C)C[C@@H]1NC(=O)[C@H](CCCNC(=N)N)NC(=O)[C@H](Cc2ccccc2)N(C)C(=O)[C@H](C)N(C)C(=O)[C@H](CCCNC(=N)N)NC(=O)[C@H](Cc2ccc(-c3ccccc3)cc2)NC(=O)[C@H](C(C)C)NC(=O)[C@H](Cc2c[nH]c3ccccc23)NC(=O)[C@H](CC(=O)O)NC(=O)[C@H](Cc2ccc(O)cc2)NC(=O)[C@H](Cc2ccccc2)NC(=O)CSC[C@@H](C(=O)NCC(N)=O)NC(=O)[C@H]([C@@H](C)O)NC(=O)[C@H](C(C)C)NC1=O [Example 1129] ({CH2CO}-FYDWV[Bip]R[NMeA][NMeF]RLVTCG-NH2; thioether N-14)
## Result 6.30

## Task Answer with reported pIC50 of COc1cccc(C[C@@H]2NC(=O)[C@H](CC(=O)O)NC(=O)[C@H](Cc3ccc(O)cc3)NC(=O)[C@H](Cc3ccccc3)NC(=O)CSC[C@@H](C(=O)N[C@@H](C)C(N)=O)NC(=O)[C@H](CO)NC(=O)[C@H](C(C)C)NC(=O)[C@H](CC(C)C)NC(=O)[C@H](CC(N)=O)NC(=O)[C@H]3CCCN3C(=O)[C@H](C)N(C)C(=O)[C@H](C(C)C)NC(=O)[C@H](Cc3ccc(-c4ccccc4)cc3)NC(=O)[C@H](CC(C)C)NC2=O)c1 [Example 1022] ({CH2CO}-FYD[Phe(3-OMe)]L[Bip]V[NMeA][dP]NLVSCA-NH2; thioether N-14)
## Result 8.00
